tested on: 786-0 renal; assay: NCI tumour cell line growth inhibition, 48 h
Where a SMILES comes first, the peptide text is derived from it. [ ]: non-standard residue; d: D form. The star is where a group is joined. Bn2Val = CC(C)[C@@H](C(=O)*)N(Cc1ccccc1)Cc1ccccc1; NMeV = CN[C@H](C(=O)O)C(C)C; X29 = COc1ccc(CN*)c(OC)c1; dNMeA = CN[C@H](C)C(=O)O
OBSERVED PROPERTY: TGI

INSERT INTO assay_data (molecule, reported) VALUES
  ('COc1ccc(CNC(=O)[C@@H]2CCCN2C(=O)[C@@H](C)N(C)C(=O)[C@H](C(C)C)N(C)C(=O)[C@@H](NC(=O)[C@H](C(C)C)N(Cc2ccccc2)Cc2ccccc2)C(C)C)c(OC)c1 (Bn2Val-V[NMeV][dNMeA]P-X29)', '11.1 µM'),
  ('CC[C@@]1(OC(=O)CN)C(=O)OCc2c1cc1n(c2=O)Cc2c-1nc1cc3c(cc1c2CCl)OCO3', '> 33.8 µM'),
  ('Clc1cccc(N2CCN(CCCN3CCc4c([nH]c5ccccc45)C3c3cccnc3)CC2)c1 (stereo not given)', '20.2 µM'),
  ('Cc1cc(NC(=O)C2C3C=CC(O3)C2C(=O)O)no1 (stereo not given)', '34.9 µM'),
  ('O=C(/C=C/c1ccc(O)c(O)c1)NCc1c[nH]c2ccccc12', '> 100 µM'),
  ('COc1ccc2c(c1)CC[C@@H]1C2CC[C@](C)(C#N)C1CC#N (stereo not given in full)', '> 100 µM'),
  ('O=C(Nc1ccc(F)cc1F)c1cc(Cl)ccc1O', '7.69 µM'),
  ('COc1ccc(OC(C(=O)O)C(C)C)c2c1CCCC2=O (stereo not given)', '> 100 µM'),
  ('C#CCNC(=O)ON1C(=O)CCC1=O', '> 100 µM'),
  ('O=C(O)CC[P+](c1ccccc1)(c1ccccc1)c1ccccc1', '> 100 µM'),
  ('N/C(=N\NS(=O)(=O)c1ccccc1)Oc1ccc(Br)cc1Br', '> 100 µM'),
  ('CC1(C)CC2(C)CC1CC2(O)c1ccccc1 (stereo not given)', '> 100 µM'),
  ('CC1(c2cc3c(cc2Br)OCO3)SCCCS1', '> 100 µM'),
  ('NCCCCC1NC(=O)C(CC(=O)O)NC(=O)CNC(=O)C(CCCN=C(N)N)NC(=O)C(N)CSSCC(C(=O)O)NC(=O)C(CC(=O)O)NC(=O)C2CCCN2C(=O)CNC1=O (stereo not given)', '> 100 µM'),
  ('Cc1c(OCc2ccccc2)c(=O)ccn1CCc1c[nH]c2ccccc12', '87 µM'),
  ('CN(C)c1ccc(/C=C/C(=O)N[C@@H]2C(=O)N3[C@@H]2SC(C)(C)[C@@H]3C(=O)O)cc1', '> 100 µM'),
  ('COc1ccc2c(c1OC)-c1c(c3ccc([N+](=O)[O-])cc3c(=O)n1CCCBr)C2=O', '52.1 µM'),
  ('CCCCCCCCOC(=O)c1c(C)[nH]c(/C=C2\N=C(c3ccc[nH]3)C=C2OC)c1C', '1.32 µM'),
  ('CN(C)CCNC(=O)c1ccc(-c2nc3ccc4[nH]ncc4c3c3c2C2CCC3C2)cc1 (stereo not given)', '4.92 µM'),
  ('CCCCCCCC(=O)OCCCC1[C@]2(C)CC[C@@]3(C)C([C@H](C)CCC=C(C)C)CC[C@]3(C)C2CC[C@]12OC2(C)C (stereo not given in full)', '> 100 µM'),
  ('CCOC(=O)c1c(C)n(Cc2ccc(Cl)cc2Cl)c2c1cc1oc(=O)c(=O)n3cnc2c13', '34.9 µM'),
  ('CO[C@H]1O[C@@H]2CO[C@@H](c3ccccc3)O[C@H]2[C@@H]2C/C=C\CCC[C@@]12O', '33 µM'),
  ('COC(=O)c1c(CC(Cc2ccc3c(c2)CCCC3)C(=O)OC)ccc2c1CCCC2 (stereo not given)', '> 100 µM'),
  ('CN(C)/C=N\c1ccnc(=O)[nH]1', '> 100 µM'),
  ('Oc1ccccc1C1C=C(c2ccccc2)NC(N2CCCCC2)=C1c1nc2ccccc2[nH]1 (stereo not given)', '25.7 µM'),
  ('CCC(C)Oc1nc2c(c(=O)n(C)c(=O)n2C)n1C (stereo not given)', '> 100 µM'),
  ('O=S1(=O)N(Cc2ccccc2)[C@@H](Cc2ccccc2)[C@H](O)[C@H](O)[C@H](Cc2ccccc2)N1Cc1ccccc1', '6.86 µM'),
  ('CC1(C)C(CCO)CC1n1ccc(=O)[nH]c1=O (stereo not given)', '> 100 µM'),
  ('CCCC1C(=O)Nc2cccc3ncn(c23)C1=O (stereo not given)', '> 100 µM'),
  ('[O-]c1ccccc1C=Nc1ccc2c(c1)CCC2.[O-]c1ccccc1C=Nc1ccc2c(c1)CCC2.[O]=[U+2]=[O]', '> 100 µM'),
  ('C1=C/COCc2cc(ccc2OCCN2CCCC2)Nc2nccc(n2)-c2ccc(o2)COC/1', '13 µM'),
  ('COC(=O)C1C(=O)CC2CCCCC21 (stereo not given)', '> 100 µM'),
  ('CN(C(=O)c1ccc2c(c1)sc1c(=O)n(C)c3ccccc3c12)c1ccccc1', '> 100 µM'),
  ('Cl/C(N=Nc1ccccc1)=N/Nc1ccccc1', '> 100 µM'),
  ('Cc1ccc2nc(-c3ccc(OCC(=O)N=Nc4c(O)[nH]c5ccccc45)cc3)[nH]c2c1', '4.38 µM'),
  ('O=C(/C=C/c1ccc(C(F)(F)F)cc1)Nc1ccc(C=C2c3ccccc3C(=O)c3ccccc32)cc1', '> 100 µM'),
  ('CNc1ccc2ncccc2c1[N+](=O)[O-]', '> 100 µM'),
  ('Cn1c(=O)c2[nH]c(SCCN3CCOCC3)nc2n(C)c1=S', '> 100 µM'),
  ('O=C(Nc1ccc(-n2ccc3c(NC(=O)c4ccccc4)ncnc32)cc1)c1cccc(C(F)(F)F)c1', '21.9 µM'),
  ('CCOc1ccc(/C(C=O)=C(\Cl)c2ccc(OC)cc2)cc1', '> 100 µM');

----------
tested on: EKVX NSCLC; test: NCI tumour cell line growth inhibition, 48 h
OBSERVED PROPERTY: TGI

INSERT INTO measurements (compound, test_target, observed_property, reported) VALUES
  ('Nc1cccc(S(=O)(=O)Nc2nnc(S(N)(=O)=O)s2)c1', 'EKVX NSCLC', 'TGI', '> 100 µM'),
  ('C=C1CC2CC[C@@]34CC5O[C@@H]6C(O[C@H]7CC[C@H](CC(=O)OC8C(C)C9OC%10C[C@]%11(C[C@@H]%12O[C@]%13(CC(C)[C@@H]%14O[C@H](C(O)CC(O)CO)C[C@@H]%14O%13)CC(C)[C@@H]%12O%11)OC%10CC9O[C@H]8C[C@H]8OC(CC[C@@H]1O2)C[C@@H](C)C8=C)OC7[C@@H]6O3)[C@H]5O4 (stereo partly drawn)', 'EKVX NSCLC', 'TGI', '2.85 µM'),
  ('COC(=O)CCc1c(Cc2ccc[nH]2)[nH]c(C(=O)OCc2ccccc2)c1C', 'EKVX NSCLC', 'TGI', '91.3 µM'),
  ('O=C(O)c1cc(=O)c2c([nH]c3ccccc32)s1', 'EKVX NSCLC', 'TGI', '> 100 µM'),
  ('Cc1cccc2nc3c(=O)[nH]c(=O)nc-3n(C)c12', 'EKVX NSCLC', 'TGI', '> 100 µM'),
  ('O=c1cccccc1NCCCCCCCNc1cccccc1=O', 'EKVX NSCLC', 'TGI', '> 100 µM'),
  ('Cc1ccc2nc(-c3ccc(OCC(=O)N=Nc4c(O)[nH]c5ccccc45)cc3)[nH]c2c1', 'EKVX NSCLC', 'TGI', '> 100 µM'),
  ('O=C1CC(C(CC(=O)c2ccccc2)c2ccccc2)C(=O)c2ccccc2N1 (stereo not drawn)', 'EKVX NSCLC', 'TGI', '> 100 µM');

----------
system: TK-10 renal; test: NCI tumour cell line growth inhibition, 48 h; in the data active = GI50 below about 0.43 µM; inactive = the rest
Labels: class 1 for active, class 0 for inactive

INSERT INTO results (compound, category_label) VALUES
  ('COc1ccc(C(=O)c2cc3c(N)c(C(=O)Nc4ccccc4)sc3nc2C)cc1', 'class 0'),
  ('CCN1CCN(c2cc(C)nc(N(CCCNc3ccnc4cc(Cl)ccc34)Cc3ccc4c(c3)OCO4)n2)CC1', 'class 0'),
  ('C=C/C(C)=C/C[C@]1(C)[C@H](C)[C@@H](OC(=O)CCC)[C@H](O)[C@@]23C(=C[C@H](OC)C[C@@H]12)[C@@H](OC(=O)CCC)O[C@H]3OC(C)=O', 'class 1'),
  ('COc1ccc(/C=C/C(=O)c2ccc(-n3cc(CN4CCN(c5cc6c(cc5F)c(=O)c(C(=O)O)cn6C5CC5)CC4)nn3)cc2)cc1OC', 'class 0'),
  ('CCN(Cc1cc(F)ccc1F)c1ccc(CO)c(Cl)c1', 'class 1'),
  ('O=C1C2=C(C(=O)c3cnccc31)C1C=CC2CC1 (centres undefined)', 'class 0'),
  ('O=C(Nc1ccc(-n2ccc3c(NC(=O)c4ccccc4)ncnc32)cc1)c1cccc(C(F)(F)F)c1', 'class 0'),
  ('CN(C)c1ccc(/C=C2\N=C(c3ccccc3)N(c3cc(C(F)(F)F)ccc3Cl)C2=O)cc1', 'class 0'),
  ('O=S1(=O)N(Cc2ccccc2)[C@@H](Cc2ccccc2)[C@H](O)[C@H](O)[C@H](Cc2ccccc2)N1Cc1ccccc1', 'class 0');
